Entries annotated with measured Ross Miles Final Foam (cm)
- assay: Ross-Miles foam test (modified, ASTM D1173-53)
- Format: physicochemical
- measurementSetup: surfactant in water; 0.01 wt % and 0.1 wt %, table does not say which

Consider the following illustrative entries.
CCCCNC[C@H](O)[C@@H](O)[C@H](O)[C@H](O)CO [N-Butylglucamine]; 0.3 cm
CCCCCCCCNC[C@H](O)[C@@H](O)[C@H](O)[C@H](O)CO [N-Octylglucamine]; 0.3 cm
CCCCCCN(CCN(CCCCCC)C[C@H](O)[C@@H](O)[C@H](O)[C@H](O)CO)C[C@H](O)[C@@H](O)[C@H](O)[C@H](O)CO [DHDGEDA]; 1.5 cm
CCCCCCNC[C@H](O)[C@@H](O)[C@H](O)[C@H](O)CO [N-Hexylglucamine]; 1.0 cm

Let us move to another entry and its Ross Miles Final Foam (cm).
Q: Item under review: CCCCN(CCN(CCCC)C[C@H](O)[C@@H](O)[C@H](O)[C@H](O)CO)C[C@H](O)[C@@H](O)[C@H](O)[C@H](O)CO [DBDGEDA] . Reported Ross Miles Final Foam (cm)?
Result: 0.5 cm

---

- assay: Dynamic surface tension, maximum bubble pressure method
- Format: physicochemical
- measurementSetup: 0.1 wt % in distilled and deionized water, 10 bubbles/sec
measuredQuantity: DST (0.1 WT %, mN/m) 10 b/s
Please answer using a numeric value trailed by its unit.

As a guide, the following entries are already answered.
CCCCNC[C@H](O)[C@@H](O)[C@H](O)[C@H](O)CO; 72 mN/m
CCCCCCCCNC[C@H](O)[C@@H](O)[C@H](O)[C@H](O)CO; 65 mN/m
CCCCCCNC[C@H](O)[C@@H](O)[C@H](O)[C@H](O)CO; 70 mN/m
CCCCCCN(CCN(CCCCCC)C[C@H](O)[C@@H](O)[C@H](O)[C@H](O)CO)C[C@H](O)[C@@H](O)[C@H](O)[C@H](O)CO; 51 mN/m

Now take the following compound into account.
Q: Looking for the measured DST (0.1 WT %, mN/m) 10 b/s of CCCCN(CCN(CCCC)C[C@H](O)[C@@H](O)[C@H](O)[C@H](O)CO)C[C@H](O)[C@@H](O)[C@H](O)[C@H](O)CO , can you help?
Result: 67 mN/m

---

- assay: Dynamic surface tension, maximum bubble pressure method
- Type: physicochemical
- measurementSetup: 0.5 wt % in distilled and deionized water, 10 bubbles/sec
measuredQuantity: DST (0.5 WT %, mN/m) 10 b/s
Write down the numeric answer in mN/m and omit the unit.

Observe how each entry below is paired with its result.
CCCCCCN(CCN(CCCCCC)C[C@H](O)[C@@H](O)[C@H](O)[C@H](O)CO)C[C@H](O)[C@@H](O)[C@H](O)[C@H](O)CO; 32
CCCCN(CCN(CCCC)C[C@H](O)[C@@H](O)[C@H](O)[C@H](O)CO)C[C@H](O)[C@@H](O)[C@H](O)[C@H](O)CO; 47
CCCCCCNC[C@H](O)[C@@H](O)[C@H](O)[C@H](O)CO; 57
CCCCCCCCNC[C@H](O)[C@@H](O)[C@H](O)[C@H](O)CO; 62

Query molecule follows.
Q: Recorded DST (0.5 WT %, mN/m) 10 b/s of CCCCNC[C@H](O)[C@@H](O)[C@H](O)[C@H](O)CO , please.
Result: 71

---

- assay: Equilibrium surface tension, Kruss K-12 tensiometer with platinum Wilhelmy plate
- Format: physicochemical
- measurementSetup: 1.0 wt % in water, 25±1° C.
- Method: Equilibrium surface tensions were determined using a Kruss K-12 tensiometer with a platinum Wilhelmy plate, maintaining the temperature at 25±1° C. by means of a constant temperature circulating bath.
Below, each entry is listed alongside its reported EST (1.0 WT %, mN/m).
Give a bare numeral; the unit mN/m is implied.

Q: Query: EST (1.0 WT %, mN/m); subject: CCCCN(CCN(CCCC)C[C@H](O)[C@@H](O)[C@H](O)[C@H](O)CO)C[C@H](O)[C@@H](O)[C@H](O)[C@H](O)CO
Result: 47

Q: What do we get for CCCCCCCCNC[C@H](O)[C@@H](O)[C@H](O)[C@H](O)CO ?
Result: 35

Q: CCCCCCNC[C@H](O)[C@@H](O)[C@H](O)[C@H](O)CO , same question.
Result: 52

Q: Another molecule: CCCCCCN(CCN(CCCCCC)C[C@H](O)[C@@H](O)[C@H](O)[C@H](O)CO)C[C@H](O)[C@@H](O)[C@H](O)[C@H](O)CO
Result: 30

---

- assay: Equilibrium surface tension, Kruss K-12 tensiometer with platinum Wilhelmy plate
- Assay type: physicochemical
- measurementSetup: 0.01 wt % in water, 25±1° C.
measuredQuantity: EST (0.01 WT %, mN/m)
Could you kindly put the unit after your number?

Solved cases below.
CCCCCCNC[C@H](O)[C@@H](O)[C@H](O)[C@H](O)CO; 64 mN/m
CCCCN(CCN(CCCC)C[C@H](O)[C@@H](O)[C@H](O)[C@H](O)CO)C[C@H](O)[C@@H](O)[C@H](O)[C@H](O)CO; 62 mN/m
CCCCCCN(CCN(CCCCCC)C[C@H](O)[C@@H](O)[C@H](O)[C@H](O)CO)C[C@H](O)[C@@H](O)[C@H](O)[C@H](O)CO; 57 mN/m

Q: Quick one: EST (0.01 WT %, mN/m) of CCCCCCCCNC[C@H](O)[C@@H](O)[C@H](O)[C@H](O)CO ?
Result: 55 mN/m

---

- assay: Dynamic surface tension, maximum bubble pressure method
- Format: physicochemical
- measurementSetup: 0.5 wt % in distilled and deionized water, 0.1 bubbles/sec
measuredQuantity: DST (0.5 WT %, mN/m) 0.1 b/s
Your answer should be a plain number; it is taken to be in mN/m.

Below, each entry is followed by its recorded DST (0.5 WT %, mN/m) 0.1 b/s result.
CCCCCCN(CCN(CCCCCC)C[C@H](O)[C@@H](O)[C@H](O)[C@H](O)CO)C[C@H](O)[C@@H](O)[C@H](O)[C@H](O)CO; 30
CCCCNC[C@H](O)[C@@H](O)[C@H](O)[C@H](O)CO; 70
CCCCCCNC[C@H](O)[C@@H](O)[C@H](O)[C@H](O)CO; 55
CCCCCCCCNC[C@H](O)[C@@H](O)[C@H](O)[C@H](O)CO; 48

Q: Look up DST (0.5 WT %, mN/m) 0.1 b/s: CCCCN(CCN(CCCC)C[C@H](O)[C@@H](O)[C@H](O)[C@H](O)CO)C[C@H](O)[C@@H](O)[C@H](O)[C@H](O)CO
Result: 56

---

- assay: Dynamic surface tension, maximum bubble pressure method
- Type: physicochemical
- measurementSetup: 0.1 wt % in distilled and deionized water, 0.1 bubbles/sec
measuredQuantity: DST (0.1 WT %, mN/m) 0.1 b/s
Report only the number, with the unit mN/m understood.

CCCCCCNC[C@H](O)[C@@H](O)[C@H](O)[C@H](O)CO; 68
CCCCCCN(CCN(CCCCCC)C[C@H](O)[C@@H](O)[C@H](O)[C@H](O)CO)C[C@H](O)[C@@H](O)[C@H](O)[C@H](O)CO; 37
CCCCN(CCN(CCCC)C[C@H](O)[C@@H](O)[C@H](O)[C@H](O)CO)C[C@H](O)[C@@H](O)[C@H](O)[C@H](O)CO; 63

Q: Need DST (0.1 WT %, mN/m) 0.1 b/s of CCCCCCCCNC[C@H](O)[C@@H](O)[C@H](O)[C@H](O)CO , thanks.
Result: 54

Q: Then what about the compound CCCCNC[C@H](O)[C@@H](O)[C@H](O)[C@H](O)CO ?
Result: 71

---

- assay: Ross-Miles foam test (modified, ASTM D1173-53)
- Format: physicochemical
- measurementSetup: surfactant in water; 0.01 wt % and 0.1 wt %, table does not say which
measuredQuantity: Ross Miles Initial Foam (cm)
State the answer as a number, implicitly in cm.

See these solved cases before continuing.
CCCCNC[C@H](O)[C@@H](O)[C@H](O)[C@H](O)CO [N-Butylglucamine]; 2.5
CCCCCCN(CCN(CCCCCC)C[C@H](O)[C@@H](O)[C@H](O)[C@H](O)CO)C[C@H](O)[C@@H](O)[C@H](O)[C@H](O)CO [DHDGEDA]; 3.6
CCCCCCCCNC[C@H](O)[C@@H](O)[C@H](O)[C@H](O)CO [N-Octylglucamine]; 2.0
CCCCCCNC[C@H](O)[C@@H](O)[C@H](O)[C@H](O)CO [N-Hexylglucamine]; 2.0

Q: Look up Ross Miles Initial Foam (cm): CCCCN(CCN(CCCC)C[C@H](O)[C@@H](O)[C@H](O)[C@H](O)CO)C[C@H](O)[C@@H](O)[C@H](O)[C@H](O)CO [DBDGEDA]
Result: 1.8
